Field: IC50. System: Cytochrome P450 3A4 (Homo sapiens, UniProt P08684). Provenance: assorted publications.
IC50 under 7 µM gets criterion met, anything at or over 7 µM gets criterion not met.

>  <Molecule>
CC(C)(C)OC(=O)N[C@H](CS[C@@H](Cc1ccccc1)C(=O)NCCCc1cccnc1)Cc1ccccc1

>  <Class Assignment>
criterion met

$$$$
>  <Molecule>
CC(C)(C)OC(=O)N[C@H](CS[C@H](Cc1ccccc1)C(=O)NCCCc1cccnc1)Cc1c[nH]c2ccccc12

>  <Class Assignment>
criterion met

$$$$
>  <Molecule>
CC(C)(C)COC(=O)CC(F)(F)C(=O)N1N=C(c2c(-c3ccc(Cl)cc3)c3ccccc3[nH]c2=O)CC1c1ccc(Cl)cc1 (centres unmarked)

>  <Class Assignment>
criterion not met

$$$$
>  <Molecule>
c1ccc2c(c1)ccn2-c1ccc(Nc2ccncc2)cc1

>  <Class Assignment>
criterion not met

$$$$
>  <Molecule>
COc1cc(O)cc2c1C(=O)C[C@@H](c1ccccc1)O2

>  <Class Assignment>
criterion not met

$$$$
>  <Molecule>
CC(C)(C)OC(=O)NC(CSCC(Nc1ccccc1)C(=O)NCCCc1cccnc1)Cc1ccccc1 (centres unmarked)

>  <Class Assignment>
criterion met

$$$$
>  <Molecule>
Cc1c(-c2cc3ccccc3n2Cc2ccc(F)cc2)nc2cc(C(=O)N3CCC[C@@H](N)C3)ccn12

>  <Class Assignment>
criterion not met

$$$$
>  <Molecule>
CC(C)(C)OC(=O)N[C@@H](CS[C@H](Cc1ccccc1)C(=O)NCCCc1cccnc1)Cc1ccccc1

>  <Class Assignment>
criterion met

$$$$
>  <Molecule>
O=C(CC(F)(F)C(=O)N1N=C(c2c(-c3ccc(Cl)cc3)c3ccccc3[nH]c2=O)CC1c1ccc(Cl)cc1)OCC1CC1 (centres unmarked)

>  <Class Assignment>
criterion met

$$$$
>  <Molecule>
O=C(O)CC(F)(F)C(=O)N1N=C(c2c(-c3ccc(Cl)cc3)c3ccccc3[nH]c2=O)CC1c1ccc(Cl)cc1 (centres unmarked)

>  <Class Assignment>
criterion not met

$$$$
>  <Molecule>
O=C(CCc1ccc(O)cc1)c1c(O)cc(O)cc1O

>  <Class Assignment>
criterion not met

$$$$
>  <Molecule>
CC(C)(C)OC(=O)NC(CSC(Cc1ccccc1)C(=O)NCCCc1cccnc1)Cc1cccc2ccccc12 (centres unmarked)

>  <Class Assignment>
criterion met

$$$$
>  <Molecule>
COc1ccc(-c2cc(=O)c3c(O)c(OC)c(O)c(OC)c3o2)cc1

>  <Class Assignment>
criterion not met

$$$$
>  <Molecule>
COCC(=O)OC1(CCN2CC(Oc3nccc4ccccc34)CC2CO)CCc2cc(F)ccc2C1C(C)C (centres unmarked)

>  <Class Assignment>
criterion not met

$$$$
